System: Zymoseptoria tritici
Test: Test E: wheat leaf blotch, preventive spray on wheat seedlings
Details: 10 ppm test solution; 100 = 100% disease control, 0 = no control relative to controls
measure-name: Test E disease control rating (%)
Give a bare numeral; the unit % is implied.

Value of measured Test E disease control rating for the entry Cc1ccc(OCC2CC(C(O)(Cn3cncn3)C(C)(C)C)=NO2)cc1 (single isomer, unassigned) [Compound 234] : 0

Summary for this compound, CC(C)(C)C(O)(Cn1cncn1)C1=NOC(COCc2ccc(Cl)cc2)C1 (single isomer, unassigned) [Compound 263] : Test E disease control rating is 0

Data point: CC1(C(O)(Cn2cncn2)C2=NOC(COc3ccc(C(F)(F)F)cc3)C2)CC1 (single isomer, unassigned) [Compound 236] ; Test E disease control rating = 16

Value of Test E disease control rating reported for the compound CCC(C)(C)C(O)(Cn1cncn1)C1=NOC(COc2ccc(C(F)(F)F)cc2)C1 (single isomer, unassigned) [Compound 262] is 41

// sample CCC(C)(C)C(O)(Cn1cncn1)C1=NOC(COc2ccc(F)cc2)C1 (single isomer, unassigned) [Compound 250] , its Test E disease control rating was 0

Measured Test E disease control rating, CC(C)(C)C(O)(Cn1cncn1)C1=NOC(COc2ccc(Cl)cc2Cl)C1 (single isomer, unassigned) [Compound 256] : 0

Per the record, OC(Cn1cncn1)(C1=NOC(COc2ccc(Cl)cc2)C1)C1CCCCC1 (single isomer, unassigned) [Compound 265] has Test E disease control rating of 1

// recorded Test E disease control rating for CC(C)(C)CC(O)(Cn1cncn1)C1=NOC(COc2ccc(F)cc2)C1 (single isomer, unassigned) [Compound 244] : 0
